- experimentalTarget: KRas^G12A (Homo sapiens, UniProt P01116, G12A)
- Construct: […]; biotin (biotinylated)
- Sequence (P01116 1-169 isoform P01116-2 G12A): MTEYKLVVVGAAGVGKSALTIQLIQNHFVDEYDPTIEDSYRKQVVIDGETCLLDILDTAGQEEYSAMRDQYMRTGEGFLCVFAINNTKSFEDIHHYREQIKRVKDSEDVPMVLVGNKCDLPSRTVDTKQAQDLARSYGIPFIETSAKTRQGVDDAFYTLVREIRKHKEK
- assayProtocol: KRas binding assay (TR-FRET displacement of Cy5 labelled tracer)
readout: IC50 (nM)
Answer format: numeric, nM implied, no suffix.

Answered examples (10):
molecule="CCc1cccc2cccc(N3CCc4c(nc(OCC56CCCN5CCC6)nc4N4CCOCC(n5cncn5)C4)C3)c12 (stereo not drawn) [Example 88]" readout=IC50 testresult=475
molecule="CCc1cccc2cccc(N3CCc4c(nc(OCC56CCCN5CCC6)nc4NC[C@H]4CCC(=O)N4)C3)c12 [Example 148]" readout=IC50 testresult=3240
molecule="Cc1cccc2cccc(N3CCc4c(nc(OCC56CCCN5CCC6)nc4N4CC5C(=O)NC(=O)C5C4)C3)c12 (stereo not drawn) [Example 80]" readout=IC50 testresult=428
molecule="CCc1cccc2cccc(N3CCc4c(nc(OCC56CCCN5CCC6)nc4N4CCn5ncc(S(C)(=O)=O)c5C4)C3)c12 [Example 144]" readout=IC50 testresult=8490
molecule="CCc1cccc2cccc(N3CCc4c(nc(OCC56CCCN5CCC6)nc4NC4CN(C(N)=O)C4)C3)c12 [Example 147]" readout=IC50 testresult=2710
molecule="CCc1cccc2cccc(N3CCc4c(nc(OCC56CCCN5CCC6)nc4NCCNc4ncccc4C#N)C3)c12 [Example 154]" readout=IC50 testresult=4040
molecule="CCc1cccc2cccc(N3CCc4c(nc(OCC56CCCN5CCC6)nc4N4CC(O)C(O)C(O)C4)C3)c12 (stereo not drawn) [Example 101]" readout=IC50 testresult=487
molecule="CCc1cccc2cccc(N3CCc4c(nc(OCC56CCCN5CCC6)nc4NC4CN(c5ccccn5)C4)C3)c12 [Example 150]" readout=IC50 testresult=5030
molecule="O=C1NC(=O)C2CN(c3nc(OCC45CCCN4CCC5)nc4c3CCN(c3cccc5cccc(F)c35)C4)CC12 (stereo not drawn) [Example 81]" readout=IC50 testresult=4050
molecule="CCc1cccc2cccc(N3CCc4c(nc(OCC56CCCN5CCC6)nc4N4CC5CC(O)CC4C5)C3)c12 (stereo not drawn) [Example 41]" readout=IC50 testresult=452

According to the records, this molecule CCc1cccc2cccc(N3CCc4c(nc(OCC56CCCN5CCC6)nc4N4CCOC(CC(N)=O)C4)C3)c12 (stereo not drawn) [Example 103] displays IC50 of 785

Quick note, IC50 for CCc1cccc2cccc(N3CCc4c(nc(OCC56CCCN5CCC6)nc4N4CCCC(O)CC4)C3)c12 (stereo not drawn) [Example 7] landed at 92

* * *

- experimentalTarget: KRas^G12S (Homo sapiens, UniProt P01116, G12S)
- Construct: […]; biotin (biotinylated)
- Sequence (P01116 1-169 isoform P01116-2 G12S): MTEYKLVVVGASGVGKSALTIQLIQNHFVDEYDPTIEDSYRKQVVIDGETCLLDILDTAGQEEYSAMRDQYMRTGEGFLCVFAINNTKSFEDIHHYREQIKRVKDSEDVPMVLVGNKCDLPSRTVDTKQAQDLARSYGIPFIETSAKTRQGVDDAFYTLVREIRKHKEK
- assayProtocol: KRas binding assay (TR-FRET displacement of Cy5 labelled tracer)
readout: IC50 (nM)
// note: answer is a bare numeric in nM

Example entries begin here.
compound="CCc1cccc2cccc(N3CCc4c(nc(OCC56CCCN5CCC6)nc4N4CCCC(c5nnc6n5CCC6)C4)C3)c12 (stereo not drawn)" experimentaltarget="KRas^G12S (Homo sapiens, UniProt P01116, G12S)" testresult=752
compound=CCc1cccc2cccc(N3CCc4c(nc(OCC56CCCN5CCC6)nc4N(C)CC4(O)CC4)C3)c12 experimentaltarget="KRas^G12S (Homo sapiens, UniProt P01116, G12S)" testresult=482
compound="CCc1cccc2cccc(N3CCc4c(nc(OCC56CCCN5CCC6)nc4NC4CC(=O)N(c5cnn(C)c5)C4)C3)c12 (stereo not drawn)" experimentaltarget="KRas^G12S (Homo sapiens, UniProt P01116, G12S)" testresult=2910
compound=CCc1cccc2cccc(N3CCc4c(nc(OCC56CCCN5CCC6)nc4NCc4nnc(CSC)[nH]4)C3)c12 experimentaltarget="KRas^G12S (Homo sapiens, UniProt P01116, G12S)" testresult=15000
compound=CCc1cccc2cccc(N3CCc4c(nc(OCC56CCCN5CCC6)nc4N4CCCn5nccc5C4)C3)c12 experimentaltarget="KRas^G12S (Homo sapiens, UniProt P01116, G12S)" testresult=669
compound="O=C1NC(=O)C2CN(c3nc(OCC45CCCN4CCC5)nc4c3CCN(c3cccc5cccc(Cl)c35)C4)CC12 (stereo not drawn)" experimentaltarget="KRas^G12S (Homo sapiens, UniProt P01116, G12S)" testresult=35
compound=CCc1cccc2cccc(N3CCc4c(nc(OCC56CCCN5CCC6)nc4NC[C@H]4CCC(=O)N4)C3)c12 experimentaltarget="KRas^G12S (Homo sapiens, UniProt P01116, G12S)" testresult=2900
compound=CCc1cccc2cccc(N3CCc4c(nc(OCC56CCCN5CCC6)nc4N(C)CC(C)(C)O)C3)c12 experimentaltarget="KRas^G12S (Homo sapiens, UniProt P01116, G12S)" testresult=601

Input CCc1cccc2cccc(N3CCc4c(nc(OCC56CCCN5CCC6)nc4N4CCCC(c5n[nH]cc5NC(C)=O)C4)C3)c12 (stereo not drawn) . Output IC50: 2470

Memo: CCc1cccc2cccc(N3CCc4c(nc(OCC56CCCN5CCC6)nc4Nc4cnn(CC(N)=O)c4)C3)c12 , reported IC50: 2830

Given item CCc1cccc2cccc(N3CCc4c(nc(OCC56CCCN5CCC6)nc4N4CCCC(n5cccn5)C4)C3)c12 (stereo not drawn) , the value recorded as its IC50 is 696

Please fill in: IC50 reported for CCc1cccc2cccc(N3CCc4c(nc(OCC56CCCN5CCC6)nc4NC4CN(c5ccccn5)C4)C3)c12 = 4870

For this compound ( CCc1cccc2cccc(N3CCc4c(nc(OCC56CCCN5CCC6)nc4N4Cc5ccnn5CC(O)C4)C3)c12 (stereo not drawn) ), measured IC50 is 330

Given item CCc1cccc2cccc(N3CCc4c(nc(OCC56CCCN5CCC6)nc4NC4CC5CC5C4)C3)c12 (stereo not drawn) , the value recorded as its IC50 is 16400

Looking up CCc1cccc2cccc(N3CCc4c(nc(OCC56CCCN5CCC6)nc4N4CCCC(P(C)(C)=O)C4)C3)c12 (stereo not drawn) , I see its IC50 listed as 1330
